This section presents binders with their documented Mean % WT Binding values.
TARGET_UNDER_TEST: human CD33 P308A (human, UniProt P20138 18-364)
Sequence (P20138 18-364 P308A limits assumed): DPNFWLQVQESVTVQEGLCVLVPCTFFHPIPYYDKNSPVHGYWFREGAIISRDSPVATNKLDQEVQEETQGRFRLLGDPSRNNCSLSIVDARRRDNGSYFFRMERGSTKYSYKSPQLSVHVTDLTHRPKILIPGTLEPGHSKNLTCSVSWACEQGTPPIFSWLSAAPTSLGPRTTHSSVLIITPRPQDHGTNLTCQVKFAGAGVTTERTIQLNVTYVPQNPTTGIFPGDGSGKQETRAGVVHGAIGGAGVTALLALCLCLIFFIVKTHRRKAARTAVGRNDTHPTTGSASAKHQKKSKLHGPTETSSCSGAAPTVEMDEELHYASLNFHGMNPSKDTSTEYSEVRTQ
PROTOCOL_TEXT: alanine scan, flow cytometry, HEK293-T;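 further: antibody binding to each alanine-substituted CD33 mutant expressed transiently in HEK293-T, read as fluorescence minus background, mean of duplicates, relative to wild-type CD33 set as 100%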
Please give a number only; it is taken to be in % WT binding.

Solved entries (count: 3):
BINDER	Mean % WT Binding (% WT binding)
Refmab #2 (antibody, V domains shown, The alanine scan used IgG or Fab) VH: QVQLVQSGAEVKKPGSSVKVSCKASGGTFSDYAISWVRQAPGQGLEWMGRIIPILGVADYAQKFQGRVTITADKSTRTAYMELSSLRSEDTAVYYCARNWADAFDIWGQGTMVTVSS VL: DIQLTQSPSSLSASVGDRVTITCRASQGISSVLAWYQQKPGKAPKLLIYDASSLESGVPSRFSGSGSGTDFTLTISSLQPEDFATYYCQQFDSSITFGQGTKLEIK	89.7
Refmab #1 (antibody, V domains shown, The alanine scan used IgG or Fab; also called hP67.6) VH: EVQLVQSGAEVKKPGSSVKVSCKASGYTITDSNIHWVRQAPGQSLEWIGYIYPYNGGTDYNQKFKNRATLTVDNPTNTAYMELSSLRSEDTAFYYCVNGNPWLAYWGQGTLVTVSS VL: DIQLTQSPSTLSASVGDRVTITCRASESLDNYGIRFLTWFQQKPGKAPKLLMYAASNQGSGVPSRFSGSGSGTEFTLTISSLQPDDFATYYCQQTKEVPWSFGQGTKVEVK	94.3
Refmab #4 (antibody, V domains shown, The alanine scan used IgG or Fab) VH: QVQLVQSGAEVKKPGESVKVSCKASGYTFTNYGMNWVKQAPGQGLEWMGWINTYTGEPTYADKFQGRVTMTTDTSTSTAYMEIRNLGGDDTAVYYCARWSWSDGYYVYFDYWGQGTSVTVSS VL: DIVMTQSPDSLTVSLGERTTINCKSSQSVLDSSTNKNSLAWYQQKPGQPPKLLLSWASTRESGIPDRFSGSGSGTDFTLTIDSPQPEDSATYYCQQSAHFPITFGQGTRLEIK	99.8

Next up:
Give the measured Mean % WT Binding of Refmab #3 (antibody, V domains shown, The alanine scan used IgG or Fab) VH: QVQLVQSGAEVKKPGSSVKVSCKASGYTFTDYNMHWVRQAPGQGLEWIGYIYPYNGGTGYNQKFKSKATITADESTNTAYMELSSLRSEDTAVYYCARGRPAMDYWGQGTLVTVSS VL: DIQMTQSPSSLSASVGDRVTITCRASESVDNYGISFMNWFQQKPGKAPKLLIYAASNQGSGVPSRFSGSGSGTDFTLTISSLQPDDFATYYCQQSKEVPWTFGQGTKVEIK .
82.8
